Target: Recombinant human his-tagged IGF R extracellular domain protein (human) (UniProt P08069)
Assay: SPR, Ab captured via anti-huIgG Fc, dissociation at pH 6
Record form. Attribute: kon. Fill in for each entry.
Quick reminder: number only, in M⁻¹ s⁻¹, skip the unit.

Q: Name the recorded kon for VRDN-02058 (antibody, V domains shown) VH: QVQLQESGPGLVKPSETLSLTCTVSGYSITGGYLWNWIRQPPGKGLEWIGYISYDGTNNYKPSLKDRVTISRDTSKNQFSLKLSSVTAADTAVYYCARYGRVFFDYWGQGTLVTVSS VL: DIVMTQSPLSLPVTPGEPASISCRSSQSIVHSNGNTYLQWYLQKPGQSPQLLIYKVSNRLYGVPDRFSGSGSGTDFTLKISRVEAEDVGVYYCFQGSHVPWHFGQGTKVEIK .
Result: 80800

Q: Next up: VRDN-02061 (antibody, V domains shown) VH: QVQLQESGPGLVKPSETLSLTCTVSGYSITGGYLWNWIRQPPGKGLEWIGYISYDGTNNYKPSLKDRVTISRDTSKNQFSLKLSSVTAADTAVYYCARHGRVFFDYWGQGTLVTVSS VL: DIVMTQSPLSLPVTPGEPASISCRSHQSIVHSNGNTYLQWYLQKPGQSPQLLIYKVSNRLYGVPDRFSGSGSGTDFTLKISRVEAEDVGVYYCFQGSHVPWTFGQGTKVEIK
Result: 145000

Q: Next up: VRDN-02064 (antibody, V domains shown) VH: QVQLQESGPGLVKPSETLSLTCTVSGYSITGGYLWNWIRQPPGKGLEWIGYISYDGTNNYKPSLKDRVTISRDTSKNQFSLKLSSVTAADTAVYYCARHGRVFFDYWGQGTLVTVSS VL: DIVMTQSPLSLPVTPGEPASISCRSSQSIVHSNGNTYLQWYLQKPGQSPQLLIYKVSNRLYGVPDRFSGSGSGTDFTLKISRVEAEDVGVYYCFHGSHVPWTFGQGTKVEIK
Result: 157000
